As shown below, each of these binders has a reported fold difference in affinity vs original ING-1 value.
- Target Or System: T1, Ep-CAM (UniProt P16422 24-265, limits assumed)
- T1 construct: Immobilised on the Biacore chip; construct not described
- T1 sequence (looked up): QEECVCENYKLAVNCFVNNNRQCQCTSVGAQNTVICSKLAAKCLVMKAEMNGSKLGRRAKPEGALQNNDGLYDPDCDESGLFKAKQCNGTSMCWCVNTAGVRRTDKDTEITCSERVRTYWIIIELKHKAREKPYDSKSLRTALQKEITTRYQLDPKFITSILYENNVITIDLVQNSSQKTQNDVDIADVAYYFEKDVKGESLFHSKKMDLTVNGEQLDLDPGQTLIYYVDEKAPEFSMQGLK
- Test Method Notes: Biacore, Fab periplasmic extract
Report as a plain number; the unit fold is understood.

INSERT INTO assay_data (binder, val) VALUES
  ('ING-1 Fab, light chain L97A (Fab, V domains shown, Fab in periplasmic extract) VH: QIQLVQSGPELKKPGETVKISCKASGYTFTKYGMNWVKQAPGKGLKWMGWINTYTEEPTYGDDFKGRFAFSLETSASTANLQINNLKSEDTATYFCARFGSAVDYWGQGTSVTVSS VL: DIVMTQAAFSNPVTLGTSGSISCRSSKSLLHSNGITYLYWYLQKPGQSPQLLIYQMSNLASGVPDRFSSSGSGTDFTLRISRVEAEDVGVYYCAQNAELPRTFGGGTKLEMKR', 0.5),
  ('ING-1 Fab, light chain P100L (Fab, V domains shown, Fab in periplasmic extract) VH: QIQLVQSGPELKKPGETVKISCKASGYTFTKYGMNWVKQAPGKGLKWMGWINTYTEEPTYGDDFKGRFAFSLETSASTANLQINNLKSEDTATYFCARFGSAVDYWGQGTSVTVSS VL: DIVMTQAAFSNPVTLGTSGSISCRSSKSLLHSNGITYLYWYLQKPGQSPQLLIYQMSNLASGVPDRFSSSGSGTDFTLRISRVEAEDVGVYYCAQNLELLRTFGGGTKLEMKR', 0.03);

Now consider a different binder.
Using the record for ING-1 Fab, light chain P100T (Fab, V domains shown, Fab in periplasmic extract) VH: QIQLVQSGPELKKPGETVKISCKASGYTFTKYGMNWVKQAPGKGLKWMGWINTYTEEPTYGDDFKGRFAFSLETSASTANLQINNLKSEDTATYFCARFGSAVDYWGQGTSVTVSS VL: DIVMTQAAFSNPVTLGTSGSISCRSSKSLLHSNGITYLYWYLQKPGQSPQLLIYQMSNLASGVPDRFSSSGSGTDFTLRISRVEAEDVGVYYCAQNLELTRTFGGGTKLEMKR , state its measured fold difference in affinity vs original ING-1. 0.08

Data provenance: patent US20110118131A1
